- studySystem: furin, P09958;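 also: purified furin at 1:10 enzyme:substrate in 50 mM HEPES pH 7.5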
- Sequence (P09958 whole entry): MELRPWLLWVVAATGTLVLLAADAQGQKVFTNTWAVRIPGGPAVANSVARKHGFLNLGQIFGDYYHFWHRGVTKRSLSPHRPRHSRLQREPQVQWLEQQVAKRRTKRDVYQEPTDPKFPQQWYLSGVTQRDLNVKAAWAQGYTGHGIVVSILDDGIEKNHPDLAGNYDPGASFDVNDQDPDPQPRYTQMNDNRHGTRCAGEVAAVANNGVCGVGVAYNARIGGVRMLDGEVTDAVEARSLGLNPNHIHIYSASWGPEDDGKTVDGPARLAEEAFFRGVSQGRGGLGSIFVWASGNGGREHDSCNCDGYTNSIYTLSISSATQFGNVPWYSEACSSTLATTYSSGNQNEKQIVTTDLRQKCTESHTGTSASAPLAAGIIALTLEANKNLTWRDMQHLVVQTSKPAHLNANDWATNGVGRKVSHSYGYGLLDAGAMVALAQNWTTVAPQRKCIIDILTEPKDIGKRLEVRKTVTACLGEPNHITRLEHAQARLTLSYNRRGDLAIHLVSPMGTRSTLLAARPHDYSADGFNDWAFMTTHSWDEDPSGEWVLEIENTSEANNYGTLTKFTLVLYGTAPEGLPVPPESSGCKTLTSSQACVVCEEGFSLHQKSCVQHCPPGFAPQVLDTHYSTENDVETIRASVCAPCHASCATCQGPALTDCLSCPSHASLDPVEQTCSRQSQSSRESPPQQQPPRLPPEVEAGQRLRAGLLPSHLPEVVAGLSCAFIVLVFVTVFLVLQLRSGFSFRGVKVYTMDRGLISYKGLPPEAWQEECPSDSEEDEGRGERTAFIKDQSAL
- assaySummary: furin cleavage Z-score vs untreated control; higher = more cleavage, active = 3.5 or more, inactive = 1 or less, 8 variable residues between constant flanks
- studyConditions: 7.5 min
The list shows a part of the results. The hit rate among all sequences tested is not known here.
Response key: T means furin cleavage Z-score >= 3; F means furin cleavage Z-score < 3.

Exercise: In plain terms: is recorded furin cleavage Z-score at least 3 for CASLHLKKRIAGNASASA [FS-625] ?
Solution: F

Exercise: API: above_or_equal(metric=furin cleavage Z-score, cutoff=3) for item CASQLRYRRCAGNASASA [FS-503]
Solution: T

Exercise: Check if furin cleavage Z-score >= 3 (inclusive). Item: CAKKRRKKRIAGNASASA [FS-936]
Solution: T

Exercise: Determine whether this sequence has furin cleavage Z-score no lower than 3: CAIYCRKKRIAGNASASA [FS-806]
Solution: F

Exercise: Exam item: decide whether the reported furin cleavage Z-score for CAQVMRRRRCAGNASASA [FS-1558] is at least 3.
Solution: T

Exercise: Does the sequence CASGARRRRCAGNASASA [FS-498] have recorded furin cleavage Z-score that is 3 or more?
Solution: F

Exercise: Check this sequence for furin cleavage Z-score at or above 3: CAQSLRCRRCAGNASASA [FS-623]
Solution: F

Exercise: Is the recorded value of furin cleavage Z-score equal to or greater than 3 for this sequence? CASERSQPRGAGNASASA [HC187]
Solution: F

Exercise: Is reported furin cleavage Z-score greater than or equal to 3 here: CAIQSRRKKIAGNASASA [FS-443]
Solution: F

Exercise: furin cleavage Z-score >= 3 for CASIRRQKREAGNASASA [FS-563] ?
Solution: T

Exercise: Confirm if furin cleavage Z-score reported for the sequence CAWRQEMGGNAGNASASA [HC1277] is 3 or above.
Solution: F

Exercise: Say whether CATVLDQAETAGNASASA [HC826] shows furin cleavage Z-score of 3 or more.
Solution: F

Exercise: Is it the case that CADLELITSCAGNASASA [HC1550] has furin cleavage Z-score reaching or exceeding 3?
Solution: F

Exercise: Does CAEWLRKKRIAGNASASA [FS-418] have a reported furin cleavage Z-score of at least 3?
Solution: F
